The compounds listed here are annotated with their pIC50.
Molecular target: human CXCR2 (Homo sapiens, UniProt P25025)
Sequence (P25025 1-360): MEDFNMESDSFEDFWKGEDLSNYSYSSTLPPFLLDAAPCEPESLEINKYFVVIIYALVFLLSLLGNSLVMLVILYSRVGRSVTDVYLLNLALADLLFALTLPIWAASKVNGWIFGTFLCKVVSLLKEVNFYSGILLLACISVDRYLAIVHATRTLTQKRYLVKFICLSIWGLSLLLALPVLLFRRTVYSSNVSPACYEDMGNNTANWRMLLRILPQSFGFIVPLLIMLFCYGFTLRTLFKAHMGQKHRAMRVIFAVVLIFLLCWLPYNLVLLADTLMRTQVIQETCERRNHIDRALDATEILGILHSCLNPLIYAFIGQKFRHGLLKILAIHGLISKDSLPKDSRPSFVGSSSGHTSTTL
Experiment: Chemotaxis assay 1, transfected cell line: inhibition of CXCL1 induced chemotaxis of BAF/3 cells expressing human CXCR2
Conditions: CXCL1 (3 nM) induced chemotaxis of BAF/3 cells expressing human CXCR2, 4 hours, Cell Titer Glo readout
Reminder that pIC50 is minus the log10 of a molar concentration.

compound	pIC50
CCC(Nc1c(Nc2ccc(Cl)c(S(=O)(=O)N3CCN4C(=O)CCC4C3)c2O)c(=O)c1=O)c1ccc(C)o1 (stereo not drawn)	7.84
CC[C@@H](Nc1c(Nc2ccc(Cl)c(S(=O)(=O)N3C[C@H]4NCCO[C@@H]4C3)c2O)c(=O)c1=O)c1ccc(C)o1	7.23
CC[C@@H](Nc1c(Nc2ccc(Cl)c(S(=O)(=O)N3CCC4(CC3)COCCN4)c2O)c(=O)c1=O)c1ccccc1	7.47

Qu. Please give the documented pIC50 of CCC(Nc1c(Nc2ccc(Cl)c(S(=O)(=O)N3CCN4C(=O)CCC4C3)c2O)c(=O)c1=O)c1ccccc1 (stereo not drawn)
Ans. 8.59

Qu. Please give the documented pIC50 of CC[C@@H](Nc1c(Nc2ccc(Cl)c(S(=O)(=O)N3CCN4CCOCC4C3)c2O)c(=O)c1=O)c1ccc(C)o1 (stereo partly drawn)
Ans. 8.17

---

Biological target: human CXCR2 (Homo sapiens, UniProt P25025)
Sequence (P25025 1-360): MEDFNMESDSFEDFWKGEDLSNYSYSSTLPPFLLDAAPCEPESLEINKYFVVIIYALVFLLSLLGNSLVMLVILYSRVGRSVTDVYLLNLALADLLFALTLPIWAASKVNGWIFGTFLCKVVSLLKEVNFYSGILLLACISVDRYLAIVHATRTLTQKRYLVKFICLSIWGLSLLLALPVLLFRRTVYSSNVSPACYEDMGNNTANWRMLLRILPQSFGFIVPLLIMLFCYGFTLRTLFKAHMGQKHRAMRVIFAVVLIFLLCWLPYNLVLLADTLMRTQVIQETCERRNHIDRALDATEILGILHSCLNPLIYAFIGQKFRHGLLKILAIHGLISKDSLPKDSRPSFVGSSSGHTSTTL
Experiment: Chemotaxis assay 1, transfected cell line: inhibition of CXCL1 induced chemotaxis of BAF/3 cells expressing human CXCR2
Conditions: CXCL1 (3 nM) induced chemotaxis of BAF/3 cells expressing human CXCR2, 4 hours, Cell Titer Glo readout
The molecules listed here are annotated with their pIC50.
Reminder that pIC50 is minus the log10 of a molar concentration.

molecule	readout	numericValue
CC[C@@H](Nc1c(Nc2ccc(Cl)c(S(=O)(=O)N3CCC4(CCNC4=O)CC3)c2O)c(=O)c1=O)c1ccc(C)o1 [Example 14]	pIC50	7.33
CC[C@@H](Nc1c(Nc2ccc(Cl)c(S(=O)(=O)N3CCN4CCOC[C@@H]4C3)c2O)c(=O)c1=O)c1ccc(C(F)(F)F)o1 [Example 10]	pIC50	7.19
CC[C@@H](Nc1c(Nc2ccc(Cl)c(S(=O)(=O)N3CCN4CCOC[C@@H]4C3)c2O)c(=O)c1=O)c1ccc(C)o1 [Example 9]	pIC50	7.87

Qu. Please give the documented pIC50 of CC[C@@H](Nc1c(Nc2ccc(Cl)c(S(=O)(=O)N3CCC4(CCNC4=O)CC3)c2O)c(=O)c1=O)c1ccccc1 [Example 13]
Ans. 7.65

# credit: patent US8648070B2
